Target: T1, human TMEM106B (human, UniProt Q9NUM4 2-274)
T1 construct: Full-length, on transiently transfected HEK293 cells, or natively expressed on HeLa, U251 and A549 cells; also called huTMEM106B; huTMEM
Assay: FACS HEK+huTMEM, 10 ug/ml;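 further: purified mouse IgG antibodies at 10 µg/ml bound to HEK293 cells transiently expressing human TMEM106B, measured by flow cytometry as median fluorescence intensity of propidium iodide negative live cells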
QUANTITY: MFI
A bare number is all that is needed in reply.

Worked examples, 2 binders total:
anti-TMEM106B antibody TM-9 (antibody, V domains shown) VH: EVQLVESGGDLVKPGGSLKLSCVASGFTFSGYGMSWVRQTPDKRLEWVATISSGSFYIYYPDSVKGRLTVSRDNAKNTLYLQMSSLKSEDTAIYYCARQNFYYGCEDYWGQGTTLTVSS VL: DIVMTQAAFSNPVTLGTSASISCRSSKSLLHSNGITYLYWYLQKPGQSPQLLIYQMSNLASGVPNRFSSSGSGTDFTLRISRVEAEDVGVYYCAQNLELPWTFGGGTKLEIK = 56400
anti-TMEM106B antibody TM-32 (antibody, V domains shown) VH: EVQLQQSGAELVRPGASVRLSCIASGFNIKDYYMYWVKQRPEQGLEWIGRIDPEDGDTEYVPKFQGKATMTADTSSNTAYLQLSSLTSEDIGVYYCTTRTWDLYYAVDNWGQGTSVTVSS VL: DVLMTQTPLSLPVSLGDQASISCRSSQNIVHSNGNTYLEWYLQKPGQSPKLLIDKVSNRFSGVPDRFSGSGSGTDFTLKISRVEAEDLGIYYCFQGSHVPFTFGSGTKLEIK = 61100

Ask: Quickly give me recorded MFI for anti-TMEM106B antibody TM-18 (antibody, V domains shown) VH: EVRLQQSGPELVKPGASVKISCKTSGYTFTDYYMNWVKQSHGKSLEWIVNINPNNGDAFYNQKFKGKATLTVDKSSNTAYLDLRSLTSEDSAVYYCAREGQLRLRRVYAMDYWGQGTSVTVSS VL: DIVLAQSPASLAVSLGQRATISCRASKSVSISVYTYVHWYQQKPGQPPKLLIYLASNLESGVPARFSGSGSGTDFTLNIHPVEEEDAATYYCQHSRELPYTFGGGTKLEIK
Reply: 71700
